- System: P388;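 also: compound exposure lasted 48 hours before growth was measured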
- test_details: cells
- Assay type: functional
- cond: Mus musculus
Active and inactive are the calls of the source. Rule as the data show it: active = GI50 up to about 1.1 µM and inactive = higher.
Outcomes you can answer with include only these: T = active, F = inactive

Here are 4 molecules together with their reported answers.
### Prompt Record request — test call for `Cc1ccc(S(=O)(=O)Oc2cc(-c3ccccc3)nc3ccccc23)cc1`
### Response F

### Prompt Could you do the same for `Nc1ncn([C@H]2C[C@H](O)[C@@H](CO)O2)c(=O)n1` , please?
### Response T

### Prompt Then what about the molecule `O=S1(=O)C(=C(c2ccccc2)c2ccccc2)S(=O)(=O)c2ccccc21` ?
### Response F

### Prompt And then CN(C)CC1CC/C(=C\c2ccc(Cl)cc2)C1=O (stereo not given) , what is it?
### Response T

Here is another molecule to look at.
### Prompt Name the outcome recorded for `O=c1[nH]c(=O)n([C@H]2CCCO2)cc1F` in the assay.
### Response F
